- assay_info: Metabolic stability in liver microsomes, Method II, rat
- Format: in vitro ADME
- experimental_parameters: 1 μM test compound, NADPH + UDPGA
Structures can show the parent of a compound that is named as a salt.
Field: label. Allowed values: MET (microsomal CLint < 30 µL/min/mg) or NOT MET (microsomal CLint >= 30 µL/min/mg).

A record lists C[C@H](Nc1ncc(F)c(N2C(=O)OC[C@@H]2[C@H](C)F)n1)c1cn(-c2ccc(F)cc2F)cn1 [479 as TFA salt] . Is its microsomal CLint below 30 µL/min/mg?
NOT MET

Would you mind doing C[C@H](Nc1nccc(N2C(=O)OC[C@@H]2CF)n1)c1cn(-c2ccc(F)cc2)cn1 [471 as TFA salt] as well?
MET

Would you mind doing C[C@H](Nc1nccc(N2C(=O)OC[C@@H]2CF)n1)c1cn(-c2ccc(F)c(F)c2)cn1 [474 as TFA salt] as well?
MET

Would you mind doing C[C@H](Nc1nccc(N2C(=O)OC[C@@H]2[C@H](C)F)n1)c1cn(-c2ccc(F)cc2F)cn1 [478 as TFA salt] as well?
NOT MET

Would you mind doing C[C@H](Nc1ncc(F)c(N2C(=O)OC[C@@H]2CF)n1)c1cn(-c2ccc(F)c(Cl)c2)cn1 [472 as TFA salt] as well?
MET

Would you mind doing C[C@H](Nc1ncc(F)c(N2C(=O)OC[C@@H]2CF)n1)c1cn(-c2ccc(C(F)F)cc2)cn1 [434 as TFA salt] as well?
MET

Would you mind doing C[C@H](Nc1nccc(N2C(=O)OC[C@@H]2CF)n1)c1cn(-c2ccc(C(F)F)c(F)c2)cn1 [475 as TFA salt] as well?
MET

Would you mind doing C[C@H](Nc1nccc(N2C(=O)OC[C@@H]2[C@H](C)F)n1)c1cn(-c2ccc(Cl)cc2F)cn1 [476 as TFA salt] as well?
NOT MET

Would you mind doing C[C@H](Nc1nccc(N2C(=O)OC[C@@H]2CF)n1)c1cn(-c2ccc(Cl)c(F)c2)cn1 [473 as TFA salt] as well?
NOT MET
